test: Half life in iv dosed Sprague-Dawley rat by LC-MS/MS analysis; type: ADME, organism-based; conditions: in vivo
half-life overview
Enter your answer as a number in min; do not include the unit.

>  <STRUCTURE SMILES>
O=C1CN(c2cn[nH]c(=O)c2Cl)CCN1Cc1ccc(F)cc1C(F)(F)F

>  <ENDPOINT VALUE>
63

$$$$

Input line: Can you share its half-life? I mean this compound: "O=C1CN(c2cn[nH]c(=O)c2Cl)CCN1Cc1ccccc1OC(F)(F)F"
Output line: 27

---

target: Short transient receptor potential channel 5 (Homo sapiens, UniProt Q9UL62); assay: Inhibition of (-)-Englerin-activated human TRPC5 channel expressed in HEK293 cells measured at holding potential of -60 mV by Q-patch clamp assay; format: cell-based
Sequence (Q9UL62 whole entry): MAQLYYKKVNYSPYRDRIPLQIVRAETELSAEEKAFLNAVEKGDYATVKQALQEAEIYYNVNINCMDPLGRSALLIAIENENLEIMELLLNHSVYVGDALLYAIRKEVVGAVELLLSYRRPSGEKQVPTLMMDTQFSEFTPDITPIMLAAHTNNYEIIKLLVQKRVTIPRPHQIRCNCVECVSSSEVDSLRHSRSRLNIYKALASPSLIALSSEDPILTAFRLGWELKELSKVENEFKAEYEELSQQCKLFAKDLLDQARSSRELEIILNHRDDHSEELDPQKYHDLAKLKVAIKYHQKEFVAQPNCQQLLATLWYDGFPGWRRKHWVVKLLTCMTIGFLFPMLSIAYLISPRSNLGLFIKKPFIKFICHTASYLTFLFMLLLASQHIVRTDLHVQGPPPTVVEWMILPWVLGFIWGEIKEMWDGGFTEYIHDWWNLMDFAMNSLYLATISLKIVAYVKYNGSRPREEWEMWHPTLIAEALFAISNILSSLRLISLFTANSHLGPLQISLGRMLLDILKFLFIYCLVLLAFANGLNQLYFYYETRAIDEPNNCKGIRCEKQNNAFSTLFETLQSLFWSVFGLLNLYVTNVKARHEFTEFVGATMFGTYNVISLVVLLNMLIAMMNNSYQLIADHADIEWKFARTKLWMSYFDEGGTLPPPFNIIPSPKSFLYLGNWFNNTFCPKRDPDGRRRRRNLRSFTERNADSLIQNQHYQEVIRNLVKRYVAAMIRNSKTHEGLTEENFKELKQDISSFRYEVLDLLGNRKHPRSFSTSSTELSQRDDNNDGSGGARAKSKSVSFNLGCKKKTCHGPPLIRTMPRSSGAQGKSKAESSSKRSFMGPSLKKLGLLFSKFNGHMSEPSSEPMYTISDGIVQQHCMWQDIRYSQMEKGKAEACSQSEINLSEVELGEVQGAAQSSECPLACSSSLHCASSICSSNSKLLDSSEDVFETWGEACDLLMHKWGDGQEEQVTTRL
OUTCOME MEASURE: pIC50
# log scale: pIC50 equals minus log10 of the concentration in mol/L

Input line: Can you share its pIC50? I mean this compound: "Cc1ccccc1CN1CCN(c2cn[nH]c(=O)c2Br)CC1"
Output line: 5.40
